# measurement-protocol: Population PK / non-compartmental analysis of plasma Rimeporide in DMD boys
# Assay type: in vivo, human
# condition-parameters: male, human, plasma, po, T1/2, Cohort 4, 600 to 900 mg daily oral, Day 28, mean, N 5
quantity-kind: half-life (min)
Provide only the numeric value, understood in min.

**Q:** # query: half-life of entry [H]/N=C(\N)NC(=O)c1cc(S(C)(=O)=O)c(S(C)(=O)=O)cc1C [Rimeporide]
**A:** 225
